Taken from the supplement of paper PMC10567573.

B1: DVL3 (parent)
chain: FCADNPSELPPPMERTGGIGDSRP

Variants of: B1
Experiment: protein stability index of a GFP-peptide fusion (GPS, HEK-293T) (PSI 1-6); higher = more stable;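 also: lentivirally expressed fusions sorted by FACS into six bins by GFP to DsRed ratio, PSI derived from sequencing read proportions per bin multiplied by bin number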
Conditions: c terminus: a fixed tail appended
In this section, each of the variants is paired with its reported protein stability index.

Reference set, count: 6
F1L
4.63
E14L
3.05
S22K
4.77
D4M
3.26
D21F
3.89
G18M
4.17

If you can, please state the reported protein stability index value of L9V .
4.82

I have this variant here, G17K , and I need its recorded protein stability index.
4.89

// lookup protein stability index for G17Y
3.91

Name the reported protein stability index value associated with the variant A3C
4.13

Recorded protein stability index of P10R , please.
4.08
